Where these numbers come from: patent US20260077009A1

Assay: Stability of NTI164 in oil at room temperature (UPLC, weekly assay, CBDA as marker)
Details: Day 0 (13 Jul. 2021)
Could you please report measured Cannabinoid concentration in NTI164 (sample 28206-7) for the items listed next?
One number for each entry, in mg/mL.

1. C=C(C)[C@@H]1CCC(C)=C[C@H]1c1c(O)cc(CCCCC)c(C(=O)O)c1O :: 48.16

(Q) Query (compound): CCCCCc1cc(O)c2c(c1)OC(C)(C)c1ccc(C)cc1-2 ; field requested: Cannabinoid concentration in NTI164 (sample 28206-7)
(A) 2.32

###

Assay: Stability of NTI164 in oil at room temperature (UPLC, weekly assay, CBDA as marker)
Conditions: Week 32 (12 Sep. 2022)
We label by threshold. Values of Cannabinoid concentration in NTI164 (sample 28206-7) strictly beneath 2 mg/mL are class 1. Values of 2 mg/mL and up are class 0.

Example cases with answers are listed next.
1) CCCc1cc(O)c2c(c1)OC(C)(C)[C@@H]1CCC(C)=C[C@@H]21 [Tetrahydrocannabivarin (THCV), Tetrahydrocannabivarin] :: class 1
2) CCCCCc1cc(O)c(C/C=C(\C)CCC=C(C)C)c(O)c1 [Cannabigerol (CBG), Cannabigerol] :: class 0
3) C=C(C)[C@@H]1CCC(C)=C[C@H]1c1c(O)cc(CCCCC)cc1O [CBD, Cannabidiol, reference compound] :: class 1
4) C=C(C)[C@@H]1CCC(C)=C[C@H]1c1c(O)cc(CCC)cc1O [Cannabidivarin (CBDV), Cannabidivarin] :: class 1

Now take the following molecule into account.
(Q) Lab log: compare recorded Cannabinoid concentration in NTI164 (sample 28206-7) with 2 mg/mL; is it strictly lower for C=C(C)[C@@H]1CCC(C)=C[C@H]1c1c(O)cc(CCCCC)c(C(=O)O)c1O [Cannabidiol acid (CBD-A), Cannabidiol acid] ?
(A) class 0

###

Test: Stability of NTI164 in oil at room temperature (UPLC, weekly assay, CBDA as marker)
Settings: Week 6 (27 Aug. 2021)
Could you please report measured Cannabinoid concentration in NTI164 (sample 28206-7) for the items listed next?
Numbers only, in mg/mL.

Use the examples below as a reference point.
1) CCCCCc1cc(O)c(C/C=C(\C)CCC=C(C)C)c(O)c1C(=O)O [Cannabigerol Acid(CBG-A), Cannabigerol Acid] :: 1.00
2) CCCCCc1cc(O)c2c(c1)OC(C)(C)c1ccc(C)cc1-2 [Cannabinol (CBN), Cannabinol] :: 2.27

Look at each compound and report its Cannabinoid concentration in NTI164 (sample 28206-7).
1. C=C(C)[C@@H]1CCC(C)=C[C@H]1c1c(O)cc(CCCCC)cc1O [CBD, Cannabidiol, reference compound]
2. CCCCCc1cc(O)c2c(c1)OC(C)(CCC=C(C)C)C=C2 (centres unmarked) [Cannabichrome (CBC), Cannabichrome]
3. CCCCCc1cc2c(c(O)c1C(=O)O)[C@@H]1C=C(C)CC[C@H]1C(C)(C)O2 [(Tetrahydrocannabinolic acid) (D9-THCA), Tetrahydrocannabinolic acid]
4. CCCCCc1cc(O)c(C/C=C(\C)CCC=C(C)C)c(O)c1 [Cannabigerol (CBG), Cannabigerol]
5. C=C(C)[C@@H]1CCC(C)=C[C@H]1c1c(O)cc(CCCCC)c(C(=O)O)c1O [Cannabidiol acid (CBD-A), Cannabidiol acid]

(A)
[0.51, 1.15, 0.73, 5.28, 47.56]

###

Assay: Stability of NTI164 in oil at room temperature (UPLC, weekly assay, CBDA as marker)
Details: Day 7 (20 Jul. 2021)
Could you please report measured Cannabinoid concentration in NTI164 (sample 28206-7) for the items listed next?
Numbers only, in mg/mL.

Use the examples below as a reference point.
1. CCCCCc1cc(O)c2c(c1)OC(C)(CCC=C(C)C)C=C2 (stereo not shown) [Cannabichrome (CBC), Cannabichrome] :: 1.34
2. CCCCCc1cc2c(c(O)c1C(=O)O)[C@@H]1C=C(C)CC[C@H]1C(C)(C)O2 [(Tetrahydrocannabinolic acid) (D9-THCA), Tetrahydrocannabinolic acid] :: 0.64
3. CCCCCc1cc(O)c(C/C=C(\C)CCC=C(C)C)c(O)c1C(=O)O [Cannabigerol Acid(CBG-A), Cannabigerol Acid] :: 1.20

Attention now shifts to the item below.
(Q) Query (compound): CCCCCc1cc(O)c2c(c1)OC(C)(C)c1ccc(C)cc1-2 [Cannabinol (CBN), Cannabinol] ; field requested: Cannabinoid concentration in NTI164 (sample 28206-7)
(A) 2.48

###

Test: Stability of NTI164 in oil at room temperature (UPLC, weekly assay, CBDA as marker)
Details: Day 0 (13 Jul. 2021)
Could you please report measured Cannabinoid concentration in NTI164 (sample 28206-7) for the items listed next?
Answers are plain numbers, in mg/mL.

Use the examples below as a reference point.
1) CCCCCc1cc2c(c(O)c1C(=O)O)[C@@H]1C=C(C)CC[C@H]1C(C)(C)O2 [(Tetrahydrocannabinolic acid) (D9-THCA), Tetrahydrocannabinolic acid] :: 0.66
2) C=C(C)[C@@H]1CCC(C)=C[C@H]1c1c(O)cc(CCCCC)cc1O [CBD, Cannabidiol, reference compound] :: 0.46
3) CCCCCc1cc(O)c(C/C=C(\C)CCC=C(C)C)c(O)c1 :: 5.21
4) CCCCCc1cc(O)c(C/C=C(\C)CCC=C(C)C)c(O)c1C(=O)O :: 1.07

Attention now shifts to the item below.
(Q) Query (molecule): CCCCCc1cc(O)c2c(c1)OC(C)(CCC=C(C)C)C=C2 (stereo not shown) ; field requested: Cannabinoid concentration in NTI164 (sample 28206-7)
(A) 1.23

###

Assay: Stability of NTI164 in oil at room temperature (UPLC, weekly assay, CBDA as marker)
Settings: Day 28 (12 Aug. 2021)
Could you please report measured Cannabinoid concentration in NTI164 (sample 28206-7) for the items listed next?
One number for each entry, in mg/mL.

1) CCCCCc1cc(O)c(C/C=C(\C)CCC=C(C)C)c(O)c1C(=O)O :: 0.81
2) C=C(C)[C@@H]1CCC(C)=C[C@H]1c1c(O)cc(CCCCC)cc1O [CBD, Cannabidiol, reference compound] :: 0.54

Attention now shifts to the item below.
(Q) Query (compound): CCCCCc1cc(O)c(C/C=C(\C)CCC=C(C)C)c(O)c1 ; field requested: Cannabinoid concentration in NTI164 (sample 28206-7)
(A) 5.1

###

Assay: Stability of NTI164 in oil at room temperature (UPLC, weekly assay, CBDA as marker)
Conditions: Week 32 (12 Sep. 2022)
parameter: Cannabinoid concentration in NTI164 (sample 28206-7) (mg/mL)
One number for each entry, in mg/mL.

Use the examples below as a reference point.
1) CCCCCc1cc(O)c2c(c1)OC(C)(C)[C@@H]1CCC(C)=C[C@@H]21 [Tetrahydrocannabinol (D9-THC), Tetrahydrocannabinol] :: 0.11
2) CCCCCc1cc(O)c(C/C=C(\C)CCC=C(C)C)c(O)c1C(=O)O [Cannabigerol Acid(CBG-A), Cannabigerol Acid] :: 1.05
3) CCCCCc1cc(O)c2c(c1)OC(C)(CCC=C(C)C)C=C2 (stereo not drawn) [Cannabichrome (CBC), Cannabichrome] :: 1.22

Attention now shifts to the item below.
(Q) Query (compound): CCCCCc1cc(O)c2c(c1)OC(C)(C)c1ccc(C)cc1-2 [Cannabinol (CBN), Cannabinol] ; field requested: Cannabinoid concentration in NTI164 (sample 28206-7)
(A) 2.21

###

Could you please report measured Cannabinoid concentration in NTI164 (sample 28206-7) for the items listed next?
Assay: Stability of NTI164 in oil at room temperature (UPLC, weekly assay, CBDA as marker)
Conditions: Day 7 (20 Jul. 2021)

Use the examples below as a reference point.
1. CCCCCc1cc(O)c2c(c1)OC(C)(C)[C@@H]1CCC(C)=C[C@@H]21 [Tetrahydrocannabinol (D9-THC), Tetrahydrocannabinol] :: <0.1 mg/mL
2. CCCc1cc(O)c2c(c1)OC(C)(C)[C@@H]1CCC(C)=C[C@@H]21 [Tetrahydrocannabivarin (THCV), Tetrahydrocannabivarin] :: <0.1 mg/mL

Attention now shifts to the item below.
(Q) Query (compound): C=C(C)[C@@H]1CCC(C)=C[C@H]1c1c(O)cc(CCC)cc1O ; field requested: Cannabinoid concentration in NTI164 (sample 28206-7)
(A) <0.1 mg/mL
